Data credit: ChEMBL document CHEMBL3988442

Could you please report measured Percent Effect for the items listed next?
Species: Homo sapiens
PROCEDURE SUMMARY: To identify inhibition of the IFN signalling (Jak-Stat) pathway via expression of an eGFP reporter gene under the control of an IFN-stimulated response element (ISRE) containing MxA promoter.
Type: functional
Design: scale not given: direction of the effect not stated beside the values
STUDY CONDITIONS: 30 µM
Enter your answer as a number in %; do not include the unit.

Percent Effect lookup needed for CN(C)CC1CN(c2cnc3ccccc3n2)CCO1 (centres undefined) , thanks.
19.6

Percent Effect lookup needed for Cc1noc(C(C)C)c1C(=O)NCc1cccc(N(C)C)c1 , thanks.
33

Percent Effect lookup needed for Cc1ccc(C2CCCCCN2Cc2cn(C)nc2C)cc1 (centres undefined) , thanks.
-15

Percent Effect lookup needed for Cc1cnn(C2CN(Cc3nc(C(C)(C)C)no3)C2)c1 , thanks.
29.8

Percent Effect lookup needed for Cc1nc(CNC(C)c2ccc(OCC(=O)NC3CC3)cc2)cs1 (centres undefined) , thanks.
3.09

Percent Effect lookup needed for O=C(CN1CCc2ccccc21)Nc1ccc(OC(F)F)cc1 , thanks.
8.31

Percent Effect lookup needed for COc1ccc(-c2nnc(SCC(=O)NCC(C)C)[nH]2)c(OC)c1 , thanks.
12.1

Percent Effect lookup needed for O=C(c1ccoc1)N1CC[C@@H]2O[C@H](COCc3ccccn3)CC[C@@H]21 , thanks.
7.99

Percent Effect lookup needed for CC(C)c1nccn1C1CCCN(C(=O)c2ccc3[nH]nnc3c2)C1 (centres undefined) , thanks.
-2.41

Percent Effect lookup needed for O=C(Nc1cnn(CCN2CCOCC2)c1)c1ccccn1 , thanks.
-7.34

Percent Effect lookup needed for Cc1nn(C)c(C)c1NC(=O)CN1CCCC1c1noc(C2CC2)n1 (centres undefined) , thanks.
-0.924

Percent Effect lookup needed for CCCc1cc(=O)[nH]c2nnc(SCC(=O)NCc3ccc(C)cc3)n12 , thanks.
16.9

Percent Effect lookup needed for CC(C)c1nc(CN(C)CC2CCN(CCO)CC2)no1 , thanks.
1.02

Percent Effect lookup needed for Cc1cccc(CN2CCc3ncnc(N4CCOCC4)c3CC2)n1 , thanks.
20.4

Percent Effect lookup needed for Cc1ccc2c(n1)N(C)CCN(C(=O)NC1CC1)C2 , thanks.
18.6

Percent Effect lookup needed for CCN1CCN(S(=O)(=O)c2cc(Cl)c(Cl)cc2C)CC1 , thanks.
-8.04

Percent Effect lookup needed for CO[C@H]1CN(Cc2cccc(C#N)c2)[C@@H]2COC[C@H]12 , thanks.
-21.7

Percent Effect lookup needed for O=C(c1cccnc1)N1C[C@@H]2CC[C@H](C1)N(Cc1cccc(Cl)c1F)C2 , thanks.
8.1

Percent Effect lookup needed for Cc1ncc(C)c(N2CCCC(CO)(Cc3cccc(Cl)c3)C2)n1 (centres undefined) , thanks.
34

Percent Effect lookup needed for NC(=O)c1ccc2c(c1)nc1n2CCN(Cc2ccco2)C1 , thanks.
1.88

Percent Effect lookup needed for CCc1ccc(C(=O)N2CCN(CCS(C)(=O)=O)CC2)o1 , thanks.
10.7

Percent Effect lookup needed for Cc1nc(C)n(C2CCCN(C(=O)c3cnc[nH]3)C2)n1 (centres undefined) , thanks.
0.378

Percent Effect lookup needed for Cc1nc(C2CCCN2C(=O)c2cc3c(s2)CCCC3)no1 (centres undefined) , thanks.
5.26

Percent Effect lookup needed for CCCNC(=O)CNC(=O)CCc1ccccc1Br , thanks.
-8.19
